B1: LPCAT4 (parent)
chain: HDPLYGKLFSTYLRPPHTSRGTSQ

variants of: B1; assay: protein stability index of a GFP-peptide fusion (GPS, HEK-293T) (PSI 1-6); higher = more stable; settings: c terminus: a fixed tail appended;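 note: lentivirally expressed fusions sorted by FACS into six bins by GFP to DsRed ratio, PSI derived from sequencing read proportions per bin multiplied by bin number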
Where protein stability index equals or exceeds 3, the correct label is rule met; where it does not, the label is rule not met.

{"columns": ["record_sequence", "assigned_category"],
 "data": [
  ["HDPLYGKLFSTYLRPPYTSRGTSQ [H17Y]", "rule not met"]
]}

Hi, just wondering whether HDPLYGKLFSTYLRPPHTPRGTSQ [S19P] shows protein stability index of 3 or higher.
rule not met

Hi, just wondering whether HDPLYGKLFSTYLRPPHTSDGTSQ [R20D] shows protein stability index of 3 or higher.
rule not met

Hi, just wondering whether HDPMYGKLFSTYLRPPHTSRGTSQ [L4M] shows protein stability index of 3 or higher.
rule met

Hi, just wondering whether HDPLYGKLFSTYLRFPHTSRGTSQ [P15F] shows protein stability index of 3 or higher.
rule not met

Hi, just wondering whether HDPLYGKLFYTYLRPPHTSRGTSQ [S10Y] shows protein stability index of 3 or higher.
rule not met

# credit: the supplement of paper PMC10567573
